- experimental.details: HPLC on IAM (immobilized artificial membrane) column, retention factor
- Type: physicochemical
- measurement.parameters: logarithm of retention factor; IAM.PC.DD.2 column; phosphate buffer pH 7.4:acetonitrile 80:20
metric.name: logkIAM
// no unit, no text: just the number

Please review the following examples before continuing.
{"molecule": "CCOCCn1c(C2CCN(CCc3ccc(C(C)(C)C(=O)O)cc3)CC2)nc2ccccc21 [bilastine]", "experimental.value": -0.26}
{"molecule": "CCN(Cc1ccncc1)C(=O)C(CO)c1ccccc1 (centres unmarked) [tropicamid]", "experimental.value": 0.03}
{"molecule": "CCCCC(=O)N(Cc1ccc(-c2ccccc2-c2nnn[nH]2)cc1)[C@H](C(=O)O)C(C)C [valsartan]", "experimental.value": -1.10}
{"molecule": "CCCCCOC(=O)Nc1nc(=O)n([C@@H]2O[C@H](C)[C@@H](O)[C@H]2O)cc1F [capecitabine]", "experimental.value": 0.04}

State its logkIAM: Clc1ccc2c(c1)CCc1cccnc1C2=C1CCNCC1 [desloratidine]
1.70

From: paper PMC10384010
